Biological target: Ku70/80 (Homo sapiens, UniProt P12956+P13010)
Construct: purchased AMRI
Sequence (P12956 whole entry): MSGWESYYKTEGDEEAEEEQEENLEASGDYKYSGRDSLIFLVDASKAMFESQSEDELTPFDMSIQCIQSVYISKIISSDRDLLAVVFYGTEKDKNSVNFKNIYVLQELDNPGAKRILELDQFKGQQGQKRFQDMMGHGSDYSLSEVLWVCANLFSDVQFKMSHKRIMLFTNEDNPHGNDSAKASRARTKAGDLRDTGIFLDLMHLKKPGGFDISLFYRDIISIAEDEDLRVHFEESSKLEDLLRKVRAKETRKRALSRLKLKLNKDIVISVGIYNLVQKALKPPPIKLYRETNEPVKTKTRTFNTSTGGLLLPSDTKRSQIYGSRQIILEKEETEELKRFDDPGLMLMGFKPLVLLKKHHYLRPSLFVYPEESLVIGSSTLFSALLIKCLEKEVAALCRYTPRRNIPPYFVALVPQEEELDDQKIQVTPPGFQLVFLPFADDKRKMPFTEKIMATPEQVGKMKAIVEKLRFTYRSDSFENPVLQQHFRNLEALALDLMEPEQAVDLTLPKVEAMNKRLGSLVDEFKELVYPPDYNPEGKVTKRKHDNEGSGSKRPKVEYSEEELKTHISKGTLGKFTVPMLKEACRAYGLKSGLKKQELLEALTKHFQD
Sequence (P13010 whole entry): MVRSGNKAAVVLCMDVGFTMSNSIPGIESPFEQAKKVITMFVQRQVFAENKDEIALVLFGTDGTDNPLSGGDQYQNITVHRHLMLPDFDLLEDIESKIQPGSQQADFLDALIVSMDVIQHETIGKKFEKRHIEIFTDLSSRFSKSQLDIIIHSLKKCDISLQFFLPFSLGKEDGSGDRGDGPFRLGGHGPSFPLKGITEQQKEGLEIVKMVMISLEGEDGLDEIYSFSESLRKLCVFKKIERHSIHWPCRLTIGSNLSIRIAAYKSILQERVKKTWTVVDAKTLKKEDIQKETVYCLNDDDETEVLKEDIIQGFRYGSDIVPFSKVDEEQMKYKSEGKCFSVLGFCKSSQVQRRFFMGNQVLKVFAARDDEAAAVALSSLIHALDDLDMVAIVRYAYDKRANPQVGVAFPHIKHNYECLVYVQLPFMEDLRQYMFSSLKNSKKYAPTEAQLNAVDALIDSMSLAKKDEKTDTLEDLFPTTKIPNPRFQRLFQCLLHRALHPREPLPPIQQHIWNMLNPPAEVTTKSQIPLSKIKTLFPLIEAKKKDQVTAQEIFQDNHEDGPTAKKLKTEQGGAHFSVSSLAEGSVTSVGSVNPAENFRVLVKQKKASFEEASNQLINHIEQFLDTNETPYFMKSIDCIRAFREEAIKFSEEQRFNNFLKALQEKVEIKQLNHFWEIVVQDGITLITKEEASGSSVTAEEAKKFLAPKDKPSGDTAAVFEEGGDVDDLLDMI
Assay: EMSA IC50 (AMRI Ku70/80)
Type: binding
Details: Hill equation fitted
We label by threshold. Values of IC50 strictly beneath 30 µM are satisfied. Values of 30 µM and up are not satisfied.

INPUT: Does the reported IC50 of O=c1[nH]c2nc(N3CCc4cc(F)ccc4C3)ncc2c(=O)n1-c1cccc(F)c1 stay below 30 µM?
OUTPUT: not satisfied

INPUT: Does the reported IC50 of O=c1[nH]c2nc(NCCc3cccc(F)c3)ncc2c(=O)n1-c1cc(F)ccc1F stay below 30 µM?
OUTPUT: not satisfied

INPUT: Does the reported IC50 of O=c1[nH]c2nc(NCCc3cccc(F)c3)ncc2c(=O)n1Cc1ccccc1F stay below 30 µM?
OUTPUT: satisfied

INPUT: Does the reported IC50 of O=c1[nH]c2nc(NCCc3ccccn3)ncc2c(=O)n1-c1cccc(F)c1 stay below 30 µM?
OUTPUT: satisfied

INPUT: Does the reported IC50 of O=c1[nH]c2nc(NCCc3ccc(F)c(F)c3)ncc2c(=O)n1-c1cccc(F)c1 stay below 30 µM?
OUTPUT: not satisfied

INPUT: Does the reported IC50 of COc1ccc(-n2c(=O)[nH]c3nc(NCCc4cccc(F)c4)ncc3c2=O)cc1OC stay below 30 µM?
OUTPUT: satisfied

INPUT: Does the reported IC50 of O=C(O)c1ccc(CNc2ncc3c(=O)n(-c4cccc(F)c4)c(=O)[nH]c3n2)cc1 stay below 30 µM?
OUTPUT: not satisfied

INPUT: Does the reported IC50 of NS(=O)(=O)c1ccc(-n2c(=O)[nH]c3nc(NCCc4cccc(F)c4)ncc3c2=O)cc1 stay below 30 µM?
OUTPUT: satisfied

INPUT: Does the reported IC50 of O=c1[nH]c2nc(NCCc3ccc4c(c3)OCCO4)ncc2c(=O)n1-c1cccc(F)c1 stay below 30 µM?
OUTPUT: satisfied

INPUT: Does the reported IC50 of O=c1[nH]c2nc(NCCc3cccc(F)c3)ncc2c(=O)n1-c1cccnc1 stay below 30 µM?
OUTPUT: not satisfied

INPUT: Does the reported IC50 of O=c1[nH]c2nc(NCCc3ccc4c(c3)OC(F)(F)O4)ncc2c(=O)n1-c1cccc(F)c1 stay below 30 µM?
OUTPUT: satisfied

INPUT: Does the reported IC50 of COc1ccc(-n2c(=O)[nH]c3nc(NCCc4cccc(F)c4)ncc3c2=O)cc1F stay below 30 µM?
OUTPUT: satisfied
